These measurements were taken from PubChem BioAssay.

Biological target: Albumin (Bos taurus)
Assay: bovine serum albumin binders on microarray, profiling panel, artefact control for SMM control protein annotation, biochemical, small-molecule microarray, Alexa647 label, 635/667 nm fluorescence (AID 1118);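 note: score merges 667 nm emission intensity and signal-to-noise per printed compound spot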
Settings: BSA-A647 binding, fluorescence 635 nm, higher = more signal
Readout: composite z-score
No unit in the answer, only the number.

The cases that follow already have their composite z-score on record.
In: Report value only: composite z-score, Albumin (Bos taurus), COc1ccc([Si](C)(C)[C@H]2[C@H](CCO)O[C@@]3(C(=O)N(Cc4ccccc4)c4ccc(NC(=O)[C@H](C)O)cc43)[C@@H]2C)cc1
Out: 0.639

In: Report value only: composite z-score, Albumin (Bos taurus), O=C1O[C@H](c2ccccc2)[C@H](c2ccccc2)N2[C@H]1[C@@H](C(=O)N1CCN(c3ncccn3)CC1)[C@]1(C(=O)Nc3ccc(C#CC4(O)CCCCCC4)cc31)[C@H]2c1ccc(O)cc1
Out: 0.605

In: Report value only: composite z-score, Albumin (Bos taurus), CCCN1C(=O)[C@@]2(c3ccc([N+](=O)[O-])cc3)CC(=O)N(C3CCCCC3)[C@@H]2c2ccc(CO)cc21
Out: -0.328

In: Report value only: composite z-score, Albumin (Bos taurus), C[C@]1(C(=O)NCC(F)(F)F)c2ccccc2C(=O)N(Cc2cc(C(F)(F)F)cc(C(F)(F)F)c2)[C@H]1c1ccc(CO)cc1
Out: 0.154

***
In: Report value only: composite z-score, Albumin (Bos taurus), CC[C@@H]1C=C(C(=O)O)[C@H](c2cccc(Cl)c2)N1S(=O)(=O)c1ccc(C)cc1
Out: 0.951

In: Report value only: composite z-score, Albumin (Bos taurus), Cc1ccc(S[C@]2(C(=O)NCCN3CCOCC3)CC(=O)N(C(C)C)[C@@H]2c2ccc(CO)cc2I)cc1
Out: -0.233

In: Report value only: composite z-score, Albumin (Bos taurus), CC(C)(C)OC(=O)CC[C@@]1(C(N)=O)N=C(c2ccc(OCCCO)cc2)O[C@@H]1c1ccccc1CN=[N+]=[N-]
Out: 0.818
